Tested on: RXF 393 renal
Test: NCI tumour cell line growth inhibition, 48 h; in the data active means GI50 below about 0.43 µM; inactive means the rest
Hi there, use one of these labels in your reply, thanks! active, inactive

Per the assay record, what outcome was assigned to CC[N+](CC)=c1ccc2nc3c(cc(N)c4ccccc43)oc-2c1 ?
active

So what was the verdict on CC(C)c1ccc(Cc2cnc(NC(=O)c3cc(Br)cs3)s2)cc1 in this test?
inactive

Short answer needed: outcome of this test for CC1=CC[C@@H]2CC[C@]3(C)[C@H](CC[C@@H]4[C@@]5(C)CCCNC(C)(C)[C@@H]5CC[C@]43C)[C@H]2[C@@H]1C ?
inactive

Answer briefly: the call reported for O=C(Nc1ccccc1C(F)(F)F)c1cccc(NC2=C(Cl)C(=O)N(Cc3ccccc3)C2=O)c1 in this assay.
inactive

Answer briefly: the call reported for CC[N+](CCCCCCCCCC[N+](CC)(c1ccccn1)c1ccccn1)(c1ccccn1)c1ccccn1 in this assay.
inactive

Hi, sorry to bother you, what did the test record for c1ccc2c(c1)[I+]c1ccccc1-2 ?
inactive

Please indicate how the test categorized Clc1nc(Oc2ccccc2)nc(-c2cn(-c3ccccc3)c3ccccc23)n1 .
inactive

Just curious, what result did O=C1c2cc(Br)ccc2-c2c1c1ccc([N+](=O)[O-])cc1c(=O)n2CCCCl get here?
inactive

Hi, sorry to bother you, what did the test record for CN(C)CCNc1nc2ccccc2c2c1c1c(n2Cc2ccccc2)-c2ccccc2C1=O ?
inactive

Recorded call for COc1cc2c(cc1OCc1ccccc1)N=C[C@@H]1C/C(=C/C(=O)NCCCN3C(=O)c4cccc5cccc(c45)C3=O)CN1C2=O ?
active

Hi, sorry to bother you, what did the test record for COc1cc([C@H](C)c2ccc3ccccc3c2)cc(OC)c1OC ?
active

Test call, this molecule: COc1cc(-c2cnn(C)c2)ccc1Nc1ncc2ccnc(N[C@@H](C)C(C)(C)C)c2n1
inactive

So what was the verdict on CCCCNc1nc(NC(C)(C)C)nc(NC(C)(C)C)n1 in this test?
inactive
